B1: Double-stranded RNA-binding protein Staufen homolog 1, residues 183 to 249; numbered along this chain, O95793 (parent)
chain: KSEISQVFEIALKRNLPVNFEVARESGPPHMKNFVTKVSVGEFVGEGEGKSKKISKKNAAIAVLEEL

Variants of: B1
EXPERIMENT_NOTES: abundance fitness (aPCA) (normalised: wild type 0, dead -1); higher = more abundant; growth selection in yeast, the domain comes from the species named
MEASUREMENT_CONDITIONS: Homo sapiens
PROPERTY_LABEL: abundance fitness
One number for each entry.

Some solved cases for reference:
VAR	EXPERIMENTAL_RESULT
R24C	-0.045
K32Q	-0.129
R14S	-0.31
K37S	-0.364
K37N	-0.328
E25Q	0.021
L16M	-0.131
T36V	-0.684

Go through the items and report each one's abundance fitness.
1. V38I
2. E25M
3. V40L
4. S39D
5. E25K
6. E21F
7. S55Q

*A*
1. -0.168
2. -0.011
3. -0.199
4. -0.542
5. 0.046
6. -0.055
7. -0.769

Go through the items and report each one's abundance fitness.
1. G45Y
2. E21S
3. P29K

*A*
1: -0.422; 2: -0.078; 3: -0.061

Go through the items and report each one's abundance fitness.
1. P29W
2. A11K
3. E66V

*A*
1: -0.274; 2: -0.633; 3: 0.077
